test system: Escherichia coli TOP10; experiment: shrunken log2 fold change of peptide-encoding DNA abundance (4.5 h post-induction vs induction); higher = less antimicrobial activity (less host growth inhibition); details: time post-induction: 4.5 h; library: site-saturation at positions 5, 18, 19, 20
MEASURED PARAMETER: shrunken log2 fold change
I'd appreciate a reply containing only the number, no unit.

RRIRCRPPRLPRPRPRPQLCPRP :: 0.192
RRIRHRPPRLPRPRPRPMKTPRP :: -0.0218
RRIRSRPPRLPRPRPRPYHDPRP :: -0.174
RRIRRRPPRLPRPRPRPAWSPRP :: 0.321
RRIRKRPPRLPRPRPRPCLCPRP :: -0.138

# return recorded shrunken log2 fold change for entry "RRIRTRPPRLPRPRPRPEQNPRP" 0.189

Respond only with shrunken log2 fold change recorded for "RRIRSRPPRLPRPRPRPCHSPRP" 0.00316

Identify shrunken log2 fold change associated with the sequence "RRIRDRPPRLPRPRPRPGLHPRP" -6.57e-05

Specify measured shrunken log2 fold change for "RRIRIRPPRLPRPRPRPHMIPRP" . -0.602

Given "RRIRYRPPRLPRPRPRPFDTPRP" , respond with its shrunken log2 fold change. -1.81

Answer with the recorded shrunken log2 fold change for the sequence listed here: "RRIRERPPRLPRPRPRPMNLPRP" -0.0666

====

tested on: Escherichia coli TOP10; assay: shrunken log2 fold change of peptide-encoding DNA abundance (4.5 h post-induction vs induction); higher = less antimicrobial activity (less host growth inhibition); conditions: time post-induction: 4.5 h; library: site-saturation at positions 5, 18, 19, 20
// values below are reported shrunken log2 fold change
Form rule: numeric answer, no unit written next to it.

Please review the following examples before continuing.
RRIRPRPPRLPRPRPRPMGVPRP :: 0.0399
RRIRCRPPRLPRPRPRPMRKPRP :: 0.249

State measured shrunken log2 fold change of the sequence "RRIRWRPPRLPRPRPRPHFQPRP" with Escherichia coli TOP10. -0.183

====

system: Escherichia coli TOP10; assay: shrunken log2 fold change of peptide-encoding DNA abundance (4.5 h post-induction vs induction); higher = less antimicrobial activity (less host growth inhibition); conditions: time post-induction: 4.5 h; library: site-saturation at positions 5, 18, 19, 20
# binarize shrunken log2 fold change: threshold -0.1 inclusive, high side true, low side false

RRIRWRPPRLPRPRPRPHNCPRP :: false
RRIRYRPPRLPRPRPRPTADPRP :: false
RRIRRRPPRLPRPRPRPLQKPRP :: true

Would you say "RRIRSRPPRLPRPRPRPKQTPRP" shows shrunken log2 fold change at minimum -0.1? false

Hello, I need to know if "RRIRSRPPRLPRPRPRPFHVPRP" has measured shrunken log2 fold change not below -0.1. Thanks! false

In plain terms: is recorded shrunken log2 fold change at least -0.1 for "RRIRNRPPRLPRPRPRPGGNPRP" ? true

Hi, just wondering whether "RRIRSRPPRLPRPRPRPSDCPRP" shows shrunken log2 fold change of -0.1 or higher. false

Does shrunken log2 fold change meet or surpass -0.1 for "RRIRWRPPRLPRPRPRPEAWPRP" ? true

Does the sequence "RRIRARPPRLPRPRPRPKHTPRP" have recorded shrunken log2 fold change that is -0.1 or more? true

Decide: shrunken log2 fold change of "RRIRFRPPRLPRPRPRPQSQPRP" >= -0.1? true

Would you say "RRIRYRPPRLPRPRPRPCKDPRP" shows shrunken log2 fold change at minimum -0.1? false

Kindly determine if shrunken log2 fold change recorded for "RRIRKRPPRLPRPRPRPVDMPRP" is above or exactly -0.1. false

====

system: Escherichia coli TOP10; assay: shrunken log2 fold change of peptide-encoding DNA abundance (4.5 h post-induction vs induction); higher = less antimicrobial activity (less host growth inhibition); conditions: time post-induction: 4.5 h; library: site-saturation at positions 5, 18, 19, 20
Given measured shrunken log2 fold change, output Met if it is greater than or equal to -0.03 and Not met if not.

RRIRGRPPRLPRPRPRPHHKPRP :: Not met
RRIRQRPPRLPRPRPRPIVKPRP :: Not met
RRIRCRPPRLPRPRPRPIYVPRP :: Not met
RRIRKRPPRLPRPRPRPYMMPRP :: Not met

Check the entry "RRIRKRPPRLPRPRPRPQRVPRP" : does shrunken log2 fold change equal or exceed -0.03? Met

Confirm if shrunken log2 fold change reported for the sequence "RRIRERPPRLPRPRPRPWRTPRP" is -0.03 or above. Not met

Has "RRIRGRPPRLPRPRPRPGYSPRP" a recorded shrunken log2 fold change greater than or equal to -0.03? Met

Hi team, for "RRIRCRPPRLPRPRPRPILHPRP" , is the recorded shrunken log2 fold change at or above -0.03? Not met

Is it the case that "RRIRLRPPRLPRPRPRPSLTPRP" has shrunken log2 fold change reaching or exceeding -0.03? Not met

Could you tell me if the measured shrunken log2 fold change of "RRIRHRPPRLPRPRPRPVCYPRP" reaches -0.03 or more? Not met

shrunken log2 fold change >= -0.03 for "RRIRTRPPRLPRPRPRPMWWPRP" ? Met

Is it the case that "RRIRHRPPRLPRPRPRPHGQPRP" has shrunken log2 fold change reaching or exceeding -0.03? Met

Could you verify whether the entry "RRIRPRPPRLPRPRPRPVAGPRP" shows shrunken log2 fold change of no less than -0.03? Met

Reported shrunken log2 fold change reaches at least -0.03 for "RRIRDRPPRLPRPRPRPDSMPRP" ? Met

Form field: shrunken log2 fold change at least -0.03? Entry: "RRIRWRPPRLPRPRPRPTLGPRP" Met

Threshold query (shrunken log2 fold change >= -0.03) on "RRIRYRPPRLPRPRPRPKSYPRP" Not met

====

tested on: Escherichia coli TOP10; assay: shrunken log2 fold change of peptide-encoding DNA abundance (4.5 h post-induction vs induction); higher = less antimicrobial activity (less host growth inhibition); settings: time post-induction: 4.5 h; library: site-saturation at positions 5, 18, 19, 20
Think of 0.1 as a floor: if shrunken log2 fold change stands on it or above, it is met; beneath it, not met.

The examples below pair each entry with its known result.
RRIRWRPPRLPRPRPRPLMCPRP :: met
RRIRCRPPRLPRPRPRPWHMPRP :: not met
RRIRLRPPRLPRPRPRPKYQPRP :: not met
RRIRQRPPRLPRPRPRPLGQPRP :: met
RRIRSRPPRLPRPRPRPTTPPRP :: met

Please indicate if the recorded shrunken log2 fold change for "RRIRARPPRLPRPRPRPPEGPRP" meets or exceeds 0.1. met

Identify whether the reported shrunken log2 fold change of the following sequence is 0.1 or greater: "RRIRERPPRLPRPRPRPYDWPRP" not met

====

test system: Escherichia coli TOP10; experiment: shrunken log2 fold change of peptide-encoding DNA abundance (4.5 h post-induction vs induction); higher = less antimicrobial activity (less host growth inhibition); details: time post-induction: 4.5 h; library: site-saturation at positions 5, 18, 19, 20
In this section, each of the sequences is paired with its reported shrunken log2 fold change.

RRIRLRPPRLPRPRPRPFSLPRP :: -0.127

Name the recorded shrunken log2 fold change of the item "RRIRSRPPRLPRPRPRPFQHPRP" in your answer. -0.0131

Quick one: give measured shrunken log2 fold change for "RRIRFRPPRLPRPRPRPFCSPRP" -0.486

Using the record for "RRIRLRPPRLPRPRPRPIKMPRP" , state its measured shrunken log2 fold change. -0.347

====

tested on: Escherichia coli TOP10; test: shrunken log2 fold change of peptide-encoding DNA abundance (4.5 h post-induction vs induction); higher = less antimicrobial activity (less host growth inhibition); conditions: time post-induction: 4.5 h; library: site-saturation at positions 5, 18, 19, 20;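 further: peptides expressed intracellularly from a pBAD plasmid library in pooled LB shake-flask culture, induced with 0.3% L-arabinose, DNA abundance read by NGS, three biological replicates, DESeq2 with apeglm shrinkage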
MEASURED PARAMETER: shrunken log2 fold change
Number only, no unit.

RRIRVRPPRLPRPRPRPGQAPRP :: -0.0106
RRIRIRPPRLPRPRPRPAAHPRP :: -0.0526
RRIRDRPPRLPRPRPRPSHHPRP :: -0.344
RRIRPRPPRLPRPRPRPDDYPRP :: 0.0238
RRIRVRPPRLPRPRPRPKGKPRP :: 0.102
RRIRGRPPRLPRPRPRPVNAPRP :: 0.719
RRIRSRPPRLPRPRPRPESAPRP :: 0.278
RRIRKRPPRLPRPRPRPYKVPRP :: -0.558

Report its shrunken log2 fold change with Escherichia coli TOP10 as the test system: "RRIRNRPPRLPRPRPRPCKMPRP" -0.00674

For Escherichia coli TOP10, give shrunken log2 fold change of the listed sequence: "RRIRFRPPRLPRPRPRPQPTPRP" 0.597

Consider the sequence "RRIRLRPPRLPRPRPRPFMDPRP" tested on Escherichia coli TOP10; state its shrunken log2 fold change. -0.361

Specify the recorded shrunken log2 fold change for "RRIRDRPPRLPRPRPRPCENPRP" , system: Escherichia coli TOP10. 0.0231

Retrieve shrunken log2 fold change on Escherichia coli TOP10; query "RRIRWRPPRLPRPRPRPCQQPRP" -0.219

# return shrunken log2 fold change for "RRIRDRPPRLPRPRPRPHKAPRP" , test system: Escherichia coli TOP10 -0.0142

Enter recorded shrunken log2 fold change with Escherichia coli TOP10 for "RRIRVRPPRLPRPRPRPDALPRP" here. -0.0285

Find the measured shrunken log2 fold change of "RRIRTRPPRLPRPRPRPDDRPRP" with Escherichia coli TOP10 as test system. 0.0143

GET shrunken log2 fold change where system = Escherichia coli TOP10 and item = "RRIRDRPPRLPRPRPRPGTNPRP" -0.344

Write down measured shrunken log2 fold change (Escherichia coli TOP10) for this sequence. "RRIRRRPPRLPRPRPRPLAIPRP" 0.0863

Provide shrunken log2 fold change, recorded with Escherichia coli TOP10, of "RRIRVRPPRLPRPRPRPNWWPRP" 0.175

Look up and report shrunken log2 fold change, with Escherichia coli TOP10 as system, for "RRIRWRPPRLPRPRPRPSHLPRP" -0.517

Report the value of shrunken log2 fold change obtained on Escherichia coli TOP10 for "RRIRVRPPRLPRPRPRPIFGPRP" . -0.015

State recorded shrunken log2 fold change with Escherichia coli TOP10, entry "RRIRLRPPRLPRPRPRPACTPRP" , no comment. -0.128

Provide Escherichia coli TOP10 shrunken log2 fold change reading for "RRIRGRPPRLPRPRPRPGLTPRP" . 1.09

Each recorded value in this set is attributed to the supplement of paper PMC9112550.
